# System: A427 cells
# protocol-text: Cell proliferation assay (Cell Titer-Glo), A427 cells
# Assay type: cell-based
# applied-conditions: Homo sapiens, A-427, typically 72 hrs post-treatment
Please provide measured pIC50 for the entries that follow.
Answers are plain numbers, as −log10 of the molar value.

smiles-str: O=C1c2cnc(Nc3ccc(N4CCNCC4)c(CO)c3)nc2OCN1c1c(Cl)cccc1Cl
pIC50: 5.52
//
smiles-str: O=C1c2cnc(Nc3ccc(N4CCNCC4)cc3)nc2OCN1c1c(Cl)cccc1Cl
pIC50: 5.37
//
smiles-str: CC1(C)CN(C(=O)CO)Cc2cc(Nc3ncc4c(n3)OCN(c3c(Cl)cccc3Cl)C4=O)ccc21
pIC50: 5.22
//
smiles-str: CN1CCN(c2ccc(Nc3ncc4c(n3)OCN(c3c(Cl)cccc3Cl)C4=O)cc2CO)CC1
pIC50: 5.44
//
smiles-str: O=C1c2cnc(Nc3ccc4c(c3)CNCC4)nc2OCN1c1c(Cl)cccc1Cl
pIC50: 5.55
//
smiles-str: CC1(C)CNCc2cc(Nc3ncc4c(n3)OCN(c3c(Cl)cccc3Cl)C4=O)ccc21
pIC50: 5.78

Go through the items and report each one's pIC50.
1. O=C1c2cnc(Nc3ccc(N4CCNCC4)cc3)nc2OCN1c1c(F)cccc1Cl
2. O=C1c2cnc(Nc3ccc(C4CCNCC4)cc3)nc2OCN1c1c(Cl)cccc1Cl

Found:
[5.11, 5.47]
